- Test system: T-24;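 also: growth inhibition of T-24 cells, read out with a cell viability assay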
- ASSAY TEXT: cells
- Assay type: functional, cell-based
- REPORTED CONDITIONS: Homo sapiens
- Description: SANGER: Inhibition of human T-24 cell growth in a cell viability assay.
What IC50 was measured for each of the following?
Reply with just the number (in nM).

Enquiry: I would be grateful if you could share the reported IC50 for C/C(=C\c1csc(C)n1)[C@@H]1C[C@@H]2O[C@]2(C)CCC[C@H](C)[C@H](O)[C@@H](C)C(=O)C(C)(C)[C@@H](O)CC(=O)O1 .
Return: 20.6

Enquiry: Next entry: NC(=O)Nc1cc(-c2cccc(F)c2)sc1C(=O)N[C@H]1CCCNC1
Return: 370

---

- Tested on: NCI-H1437;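 also: growth inhibition of human NCI-H1437 cells, read out by a cell viability assay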
- ASSAY TEXT: cells
- Type: functional, cell-based
- REPORTED CONDITIONS: Homo sapiens
- Description: SANGER: Inhibition of human NCI-H1437 cell growth in a cell viability assay.
READOUT LABEL: pIC50
Quick note: pIC50 values are minus log10 of concentrations in mol/L.

Enquiry: I would be grateful if you could share the reported pIC50 for O=C(NCCCNc1nc(Nc2cccc(NC(=O)N3CCCC3)c2)ncc1I)c1cccs1 [BX-795] .
Return: 5.56

Enquiry: Next entry: CCCCCCCCCCCC1=C(O)C(=O)C=C(O)C1=O [EMBELIN]
Return: 5.20

Enquiry: Next entry: COc1ccc(-c2cc3nccn3c(Nc3ncccc3C(N)=O)n2)cc1OC
Return: 5.75

Enquiry: Next entry: CN(NC(=O)CC(=O)NN(C)C(=S)c1ccccc1)C(=S)c1ccccc1 [ELESCLOMOL]
Return: 7.06

---

- Tested on: LCLC-103H cell line
- ASSAY TEXT: cells
- Format: functional, cell-based
- REPORTED CONDITIONS: Homo sapiens
- Description: SANGER: Inhibition of human LCLC-103H cell growth in a cell viability assay.
READOUT LABEL: pIC50
Quick note: pIC50 values are minus log10 of concentrations in mol/L.

Enquiry: I would be grateful if you could share the reported pIC50 for NC(=O)Nc1cc(-c2cccc(F)c2)sc1C(=O)N[C@H]1CCCNC1 [AZD-7762] .
Return: 6.01

Enquiry: Next entry: C/C(=C\c1csc(C)n1)[C@@H]1C[C@@H]2O[C@]2(C)CCC[C@H](C)[C@H](O)[C@@H](C)C(=O)C(C)(C)[C@@H](O)CC(=O)O1 [PATUPILONE]
Return: 9.51

---

- Test system: EB-3;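 also: human EB-3 cells, growth inhibition read out via a cell viability assay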
- ASSAY TEXT: cells
- Assay type: functional, cell-based, Homo sapiens
- REPORTED CONDITIONS: Homo sapiens, EB-3
- Description: SANGER: Inhibition of human EB-3 cell growth in a cell viability assay.
READOUT LABEL: pIC50
Quick note: pIC50 values are minus log10 of concentrations in mol/L.

Enquiry: I would be grateful if you could share the reported pIC50 for COc1ccc(N(C(=O)Oc2c(C)cccc2C)c2ccnc(Nc3ccc(N4CCN(C)CC4)cc3)n2)c(OC)c1 .
Return: 5.67

---

- Tested on: CAL-85-1
- ASSAY TEXT: cells
- Format: functional, cell-based
- REPORTED CONDITIONS: Homo sapiens
- Description: SANGER: Inhibition of human CAL-85-1 cell growth in a cell viability assay.
READOUT LABEL: IC50

Enquiry: I would be grateful if you could share the reported IC50 for CN(C)CCOc1ccc(-c2nc(-c3ccncc3)c(-c3ccc4c(c3)CC/C4=N\O)[nH]2)cc1 [SB590885] .
Return: > 5 µM

Enquiry: Next entry: O=C1NC(=O)c2c1c(-c1ccccc1Cl)cc1[nH]c3ccc(O)cc3c21
Return: > 2 µM

Enquiry: Next entry: Cc1ccc(C(=O)Nc2ccc(CN3CCN(C)CC3)c(C(F)(F)F)c2)cc1C#Cc1cnc2cccnn12 [PONATINIB]
Return: 0.179 µM

Enquiry: Next entry: CO[C@@H]1[C@H](N(C)C(=O)c2ccccc2)C[C@H]2O[C@]1(C)n1c3ccccc3c3c4c(c5c6ccccc6n2c5c31)C(=O)NC4 [MIDOSTAURIN]
Return: > 0.512 µM

Enquiry: Next entry: COC(=O)[C@H](CCSC)NC(=O)c1ccc(NC[C@@H](N)CS)cc1-c1ccccc1
Return: > 1.02 µM

Enquiry: Next entry: CN(NC(=O)CC(=O)NN(C)C(=S)c1ccccc1)C(=S)c1ccccc1 [ELESCLOMOL]
Return: 0.0727 µM

Enquiry: Next entry: CS(=O)(=O)N1CCN(Cc2cc3nc(-c4cccc5[nH]ncc45)nc(N4CCOCC4)c3s2)CC1 [PICTILISIB]
Return: > 4 µM

Enquiry: Next entry: NC1(c2ccc(-c3nc4ccn5c(=O)[nH]nc5c4cc3-c3ccccc3)cc2)CCC1 [MK-2206]
Return: > 4 µM

---

What pIC50 was measured for each of the following?
- Test system: ES4
- ASSAY TEXT: cells
- Format: functional, cell-based, Homo sapiens
- REPORTED CONDITIONS: Homo sapiens, ES4
- Description: SANGER: Inhibition of human ES4 cell growth in a cell viability assay.
Quick note: pIC50 values are minus log10 of concentrations in mol/L.

Enquiry: Test system ES4; read-out pIC50; what value for O=C1NC(=O)c2c1c(-c1ccccc1Cl)cc1[nH]c3ccc(O)cc3c21 ?
Return: 6.03

Enquiry: Next entry: COc1ccc(-c2cc3nccn3c(Nc3ncccc3C(N)=O)n2)cc1OC
Return: 5.91

Enquiry: Next entry: CCCCCCCCCCCC1=C(O)C(=O)C=C(O)C1=O
Return: 5.35

---

- Tested on: RD
- ASSAY TEXT: cells
- Type: functional, cell-based
- REPORTED CONDITIONS: Homo sapiens
- Description: SANGER: Inhibition of human RD cell growth in a cell viability assay.
What IC50 was measured for each of the following?

Enquiry: Test system RD; read-out IC50; what value for COC(=O)[C@H](CCSC)NC(=O)c1ccc(NC[C@@H](N)CS)cc1-c1ccccc1 ?
Return: > 1020 nM

Enquiry: Next entry: C/C(=C\c1csc(C)n1)[C@@H]1C[C@@H]2O[C@]2(C)CCC[C@H](C)[C@H](O)[C@@H](C)C(=O)C(C)(C)[C@@H](O)CC(=O)O1 [PATUPILONE]
Return: 4.42 nM

Enquiry: Next entry: OC[C@H](Cc1ccccc1)Nc1nc(Oc2ccc3c(c2)CCC3)nc2c1ncn2Cc1ccc(-c2ccccc2)cc1
Return: > 10200 nM

Enquiry: Next entry: Cc1ccc(C(=O)Nc2ccc(CN3CCN(C)CC3)c(C(F)(F)F)c2)cc1C#Cc1cnc2cccnn12 [PONATINIB]
Return: > 512 nM

Enquiry: Next entry: Cc1ccc(-n2nc(C(C)(C)C)cc2NC(=O)Nc2ccc(OCCN3CCOCC3)c3ccccc23)cc1 [DORAMAPIMOD]
Return: > 10000 nM

---

- Tested on: DOHH-2
- ASSAY TEXT: cells
- Format: functional, cell-based, Homo sapiens
- REPORTED CONDITIONS: Homo sapiens, DOHH-2
- Description: SANGER: Inhibition of human DOHH-2 cell growth in a cell viability assay.
READOUT LABEL: IC50

Enquiry: I would be grateful if you could share the reported IC50 for O=C1NC(=O)c2c1c(-c1ccccc1Cl)cc1[nH]c3ccc(O)cc3c21 .
Return: > 2000 nM

Enquiry: Next entry: CS(=O)(=O)N1CCN(Cc2cc3nc(-c4cccc5[nH]ncc45)nc(N4CCOCC4)c3s2)CC1
Return: > 4000 nM

Enquiry: Next entry: CN(C)CCOc1ccc(-c2nc(-c3ccncc3)c(-c3ccc4c(c3)CC/C4=N\O)[nH]2)cc1
Return: > 5000 nM

Enquiry: Next entry: NC(=O)Nc1cc(-c2cccc(F)c2)sc1C(=O)N[C@H]1CCCNC1
Return: 131 nM

---

What pIC50 was measured for each of the following?
- System: NCI-H1573
- ASSAY TEXT: cells
- Assay type: functional, cell-based
- REPORTED CONDITIONS: Homo sapiens
- Description: SANGER: Inhibition of human NCI-H1573 cell growth in a cell viability assay.
pIC50: −log10 of the molar value.

Enquiry: I would be grateful if you could share the reported pIC50 for NC1(c2ccc(-c3nc4ccn5c(=O)[nH]nc5c4cc3-c3ccccc3)cc2)CCC1 .
Return: < 5.40

Enquiry: Next entry: NC(=O)c1ccc(N(C(N)=O)c2c(F)cccc2F)nc1-c1ccc(F)cc1F
Return: < 5.70

Enquiry: Next entry: COc1ccc(-c2cc3nccn3c(Nc3ncccc3C(N)=O)n2)cc1OC
Return: < 5.10

Enquiry: Next entry: CN(NC(=O)CC(=O)NN(C)C(=S)c1ccccc1)C(=S)c1ccccc1
Return: 6.72

---

What IC50 was measured for each of the following?
- Test system: SNU-387
- ASSAY TEXT: cells
- Type: functional, cell-based
- REPORTED CONDITIONS: Homo sapiens
- Description: SANGER: Inhibition of human SNU-387 cell growth in a cell viability assay.

Enquiry: I would be grateful if you could share the reported IC50 for O=C1NC(=O)c2c1c(-c1ccccc1Cl)cc1[nH]c3ccc(O)cc3c21 .
Return: > 2 µM

Enquiry: Next entry: COC(=O)[C@H](CCSC)NC(=O)c1ccc(NC[C@@H](N)CS)cc1-c1ccccc1
Return: > 1.02 µM

---

What pIC50 was measured for each of the following?
- Test system: Caov-3 cell line;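 also: cell growth inhibition read out by a viability assay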
- ASSAY TEXT: cells
- Assay type: functional, cell-based
- REPORTED CONDITIONS: Homo sapiens
- Description: SANGER: Inhibition of human Caov-3 cell growth in a cell viability assay.
pIC50: −log10 of the molar value.

Enquiry: I would be grateful if you could share the reported pIC50 for Cc1ccc(C(=O)Nc2ccc(CN3CCN(C)CC3)c(C(F)(F)F)c2)cc1C#Cc1cnc2cccnn12 .
Return: < 6.29

Enquiry: Next entry: OC[C@H](Cc1ccccc1)Nc1nc(Oc2ccc3c(c2)CCC3)nc2c1ncn2Cc1ccc(-c2ccccc2)cc1
Return: < 4.99
